# Tested on: HIV-1 X4LAI.04
# MEASUREMENT_DESCRIPTION: HIV-1 inhibition in MT-4 cell cultures
# Type: cell-based
# MEASUREMENT_CONDITIONS: Human immunodeficiency virus 1, MT4, 72 h, read-out: EC50 (MT-4)
READOUT_NAME: pEC50
In plain terms, pEC50 is the concentration in mol/L turned into minus its base-10 logarithm.

So for Cc1cn([C@H]2C[C@H](N=[N+]=[N-])[C@@H](CO)O2)c(=O)[nH]c1=O [AZT, 3′-azido-3′-deoxythymidine, reference compound] , the logged pEC50 turned out to be 7.52
